meta.source: ChEMBL document CHEMBL1201862

# Tested on: U-251
# test_summary: NCI tumour cell line growth inhibition, 48 h
Active and inactive are the calls of the source. Rule as the data show it: active = GI50 up to about 1.1 µM and inactive = higher. Positions of bridges follow the written chain, without caps; N, C: chain ends. Residues, ends and D or L forms follow the SMILES beside them.
assay_endpoint: GI50

[in] Reported GI50 for Cc1nc2ccc(F)cc2c2c1CCN2c1ccc(Cl)cc1 : what is it?
[out] 9.1 µM (inactive)

[in] Reported GI50 for C[n+]1c2ccccc2c(N=[N+]=[N-])c2ccccc21 : what is it?
[out] 9.93 µM (inactive)

***
[in] Reported GI50 for COC(=O)c1ccc(Cl)cc1NC(=O)C1CCCCC1 : what is it?
[out] > 100 µM (inactive)

[in] Reported GI50 for CCOC(=O)NC(=O)c1cn(CCOCCOC(=O)NCCCCCCNC(=O)OCCOCCn2cc(C(=O)NC(=O)OCC)c(=O)[nH]c2=O)c(=O)[nH]c1=O : what is it?
[out] > 100 µM (inactive)

[in] Reported GI50 for COc1cc(/C=C/c2nc(N)nnc2C)cc(OC)c1OC : what is it?
[out] 18.4 µM (inactive)

[in] Reported GI50 for NC(=O)CCC(NC(=O)c1cccc2c(=O)c3ccccc3[nH]c12)C(=O)O (centres undefined) : what is it?
[out] > 100 µM (inactive)

[in] Reported GI50 for COC(=O)C1CCC(=O)NCCCCC(NC(=O)C(N)CC(=O)O)C(=O)N1 (stereo not drawn) (H-Asp-Lys-Glu-OMe; lactam 2-3; configuration not given here) : what is it?
[out] > 100 µM (inactive)

[in] Reported GI50 for Cc1cc(CC(O)(C(F)(F)F)C(F)(F)F)cc(CC(O)(C(F)(F)F)C(F)(F)F)n1 : what is it?
[out] 3.3 µM (inactive)

[in] Reported GI50 for CN(C)Cc1cc(C(C)(C)C)cc(CN(C)C)c1O : what is it?
[out] 98.6 µM (inactive)

---

# System: HOP-92
# test_summary: NCI tumour cell line growth inhibition, 48 h
Calls of active or inactive are those of the source. Rule as the data show it: active = GI50 up to about 1.1 µM and inactive = higher.
GI50 by entry:

Some entries whose results are on file:
[in] Reported GI50 for O=C1CCCCC/C1=C\c1ccc(Cl)cc1 : what is it?
[out] 35.7 µM (inactive)

[in] Reported GI50 for CC(=O)c1csc2c1C(=O)c1ccccc1C2=O : what is it?
[out] 30.5 µM (inactive)

[in] Reported GI50 for C=C(CN(C)C)C(=O)c1ccc(OC)cc1 : what is it?
[out] 1.32 µM (inactive)

***
[in] Reported GI50 for O=C(/C=C/c1ccccc1O)c1ccccc1Cl : what is it?
[out] 28.8 µM (inactive)

[in] Reported GI50 for CC(=O)OC(/C=C/c1ccccc1)P1(=O)N(CC(C)(C)C)[C@@H]2CCCC[C@H]2N1CC(C)(C)C (some centres undefined) : what is it?
[out] 12 µM (inactive)

[in] Reported GI50 for C/C=C1\CN2CCc3c([nH]c4ccccc34)C2C=C1CCO (centres undefined) : what is it?
[out] > 340 µM (inactive)

[in] Reported GI50 for Cc1c(C(=O)O)n2cnnc2c2ccccc12 : what is it?
[out] > 100 µM (inactive)

[in] Reported GI50 for CC1OC2OC3C(OCC(O)C3O)OC(=O)[C@]34CCC(C)(C)CC3C3=CCC5[C@@]6(C)C[C@H](O)[C@H](OC7OC(CO)C(O)C(O)C7OC7OC(COC(=O)CC(C)(O)CC(=O)OC1C(O)C2O)C(O)C(O)C7O)[C@@](C)(CO)C6CC[C@@]5(C)[C@]3(C)CC4 (some centres undefined) : what is it?
[out] 1.54 µM (inactive)

[in] Reported GI50 for C1C[N+]23CCC[N+]2(C1)CCC3 (centres undefined) : what is it?
[out] > 100 µM (inactive)
